Test system: Alpha amylase (Homo sapiens)
Sequence (P0DUB6 whole entry): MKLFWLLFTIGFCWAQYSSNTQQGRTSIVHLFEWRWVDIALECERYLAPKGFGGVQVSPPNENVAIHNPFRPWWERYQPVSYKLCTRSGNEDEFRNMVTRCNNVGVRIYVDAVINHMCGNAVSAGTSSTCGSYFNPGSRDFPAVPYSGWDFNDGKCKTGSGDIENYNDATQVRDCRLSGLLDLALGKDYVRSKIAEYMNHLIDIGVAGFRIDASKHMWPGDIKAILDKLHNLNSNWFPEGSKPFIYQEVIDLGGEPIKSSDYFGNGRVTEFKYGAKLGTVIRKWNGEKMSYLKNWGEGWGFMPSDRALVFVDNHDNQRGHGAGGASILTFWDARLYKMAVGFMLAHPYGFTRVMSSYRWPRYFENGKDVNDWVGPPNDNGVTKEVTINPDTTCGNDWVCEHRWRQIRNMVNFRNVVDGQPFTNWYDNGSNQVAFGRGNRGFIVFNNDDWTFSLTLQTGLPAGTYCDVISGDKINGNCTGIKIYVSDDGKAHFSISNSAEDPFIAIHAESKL
Protocol notes: Inhibition of alpha-amylase (unknown origin) using starch as substrate preincubated for 10 mins followed by substrate addition measured after 10 mins by dinitrosalicylic acid reagent-based assay
Entries and their IC50 values follow.
Measured metric: IC50 (nM)

1. COc1ccc(Br)c(-c2nc3cc(Cl)ccc3[nH]2)c1O	2210
2. COc1ccc(-c2nc3cc(F)ccc3[nH]2)c(Cl)c1OC	2560
3. COc1cccc(-c2nc3cc(C)c(C)cc3[nH]2)c1Cl	2840
4. Cc1cc2nc(-c3cc(O)ccc3O)[nH]c2cc1C	2990
5. COc1ccc(Br)cc1-c1nc2cc(F)ccc2[nH]1	2600
6. COc1cc(-c2nc3cc(Cl)ccc3[nH]2)cc(OC)c1O	2520
